Molecular target: HCV NS3/4A protease complex, H77 strain (Hepatitis C virus genotype 1a, UniProt P27958, C1454S/C1711G)
Construct: recombinant HCV NS3/4A protease complex (amino acids 1027 to 1711) for these strains; His tag (inferred from pET21b vector and Ni-NTA purification)
Sequence (P27958 1027-1711 C1454S/C1711G, one chain of several): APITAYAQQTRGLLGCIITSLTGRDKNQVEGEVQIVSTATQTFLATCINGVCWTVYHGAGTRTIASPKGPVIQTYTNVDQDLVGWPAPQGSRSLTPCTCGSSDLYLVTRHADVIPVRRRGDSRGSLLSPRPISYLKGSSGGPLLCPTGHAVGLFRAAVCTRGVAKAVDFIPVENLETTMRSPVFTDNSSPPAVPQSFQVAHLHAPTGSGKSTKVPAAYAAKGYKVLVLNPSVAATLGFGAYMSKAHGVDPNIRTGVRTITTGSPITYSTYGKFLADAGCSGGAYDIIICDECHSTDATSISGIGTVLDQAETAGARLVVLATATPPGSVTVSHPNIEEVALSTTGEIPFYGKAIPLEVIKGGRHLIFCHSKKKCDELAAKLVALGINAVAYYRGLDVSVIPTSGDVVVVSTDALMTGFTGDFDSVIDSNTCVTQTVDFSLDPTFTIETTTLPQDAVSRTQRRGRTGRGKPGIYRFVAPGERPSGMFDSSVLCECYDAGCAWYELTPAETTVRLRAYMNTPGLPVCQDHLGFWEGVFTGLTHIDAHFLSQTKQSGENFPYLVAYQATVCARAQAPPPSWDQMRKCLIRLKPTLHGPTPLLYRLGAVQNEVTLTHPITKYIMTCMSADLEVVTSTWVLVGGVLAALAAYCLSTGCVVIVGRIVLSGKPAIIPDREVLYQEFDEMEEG
Assay: FRET peptide assay to monitor HCV NS3/4A proteolytic activity (H77 strain)
pIC50: −log10 of the molar value.
reported property: pIC50

{"columns": ["item smiles", "measured number"],
 "data": [
  ["COc1c(O[C@@H]2C[C@H]3C(=O)N[C@]4(C(=O)NS(=O)(=O)C5CC5)C[C@H]4/C=C\\CCCCC[C@H](NC(=O)OC(C)(C)C)C(=O)N3C2)ccc2c(Cl)nccc12", 9.22]
]}

###

Test system: HCV replicon (Renilla luciferase) in HUH-7 cells
Experiment: HCV replicon luciferase reporter assay
Assay type: cell-based, HCV strain 1b
Settings: Huh-7, 96 h, 4 days
pEC50: −log10 of the molar value.

{"columns": ["item smiles", "pEC50"],
 "data": [
  ["COc1c(O[C@@H]2C[C@H]3C(=O)N[C@]4(C(=O)NS(=O)(=O)C5CC5)C[C@H]4/C=C\\CCCCC[C@H](NC(=O)OC(C)(C)C)C(=O)N3C2)ccc2c(Cl)nccc12", 8.26]
]}

###

System: human pancreatic chymotrypsin
Test: Specificity assay, chymotrypsin (pNA substrate)
Format: biochemical
Settings: read-out: Chymotrypsin activity in the specificity assays (IC50)
Protocol: […] Each pNA assay included a 2 h enzyme-inhibitor pre-incubation at room temperature followed by addition of substrate and hydrolysis to ˜15% conversion as measured on a Spectramax Pro microplate reader. The cathepsin B assay was initiated by adding substrate to a 10 min enzyme-inhibitor pre-incubation at room temperature, and the assay plate measured immediately using the Cytofluor Series 4000. […] The percentage of inhibition was calculated using the formula: [1−((UVinh−UVblank)/(UVctl−UVblank))]×100 […]
pIC50: −log10 of the molar value.
reported property: pIC50

{"columns": ["item smiles", "reported property", "result"],
 "data": [
  ["COc1c(O[C@@H]2C[C@H]3C(=O)N[C@]4(C(=O)NS(=O)(=O)C5CC5)C[C@H]4/C=C\\CCCCC[C@H](NC(=O)OC(C)(C)C)C(=O)N3C2)ccc2c(Cl)nccc12", "pIC50", "< 4.00"]
]}

###

Target: porcine pancreatic elastase (PPE) (Sus scrofa)
Sequence (P00772 27-266): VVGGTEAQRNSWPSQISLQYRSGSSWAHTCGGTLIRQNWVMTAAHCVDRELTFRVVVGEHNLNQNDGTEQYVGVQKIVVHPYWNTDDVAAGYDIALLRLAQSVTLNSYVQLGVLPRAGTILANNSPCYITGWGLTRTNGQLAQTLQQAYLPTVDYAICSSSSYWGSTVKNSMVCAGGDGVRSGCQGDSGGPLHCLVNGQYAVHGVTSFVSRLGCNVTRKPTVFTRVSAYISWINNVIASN
pIC50: −log10 of the molar value.
reported property: pIC50

{"columns": ["item smiles", "target of assay", "result"],
 "data": [
  ["COc1c(O[C@@H]2C[C@H]3C(=O)N[C@]4(C(=O)NS(=O)(=O)C5CC5)C[C@H]4/C=C\\CCCCC[C@H](NC(=O)OC(C)(C)C)C(=O)N3C2)ccc2c(Cl)nccc12", "porcine pancreatic elastase (PPE) (Sus scrofa)", "< 4.00"]
]}

###

Target: HCV NS3/4A protease complex, J4L6S strain (Hepatitis C virus genotype 1b, UniProt O92972, C1454S/C1711G)
Construct: recombinant HCV NS3/4A protease complex (amino acids 1027 to 1711) for these strains; His tag (inferred from pET21b vector and Ni-NTA purification)
Sequence (O92972 1027-1711 C1454S/C1711G, one chain of several): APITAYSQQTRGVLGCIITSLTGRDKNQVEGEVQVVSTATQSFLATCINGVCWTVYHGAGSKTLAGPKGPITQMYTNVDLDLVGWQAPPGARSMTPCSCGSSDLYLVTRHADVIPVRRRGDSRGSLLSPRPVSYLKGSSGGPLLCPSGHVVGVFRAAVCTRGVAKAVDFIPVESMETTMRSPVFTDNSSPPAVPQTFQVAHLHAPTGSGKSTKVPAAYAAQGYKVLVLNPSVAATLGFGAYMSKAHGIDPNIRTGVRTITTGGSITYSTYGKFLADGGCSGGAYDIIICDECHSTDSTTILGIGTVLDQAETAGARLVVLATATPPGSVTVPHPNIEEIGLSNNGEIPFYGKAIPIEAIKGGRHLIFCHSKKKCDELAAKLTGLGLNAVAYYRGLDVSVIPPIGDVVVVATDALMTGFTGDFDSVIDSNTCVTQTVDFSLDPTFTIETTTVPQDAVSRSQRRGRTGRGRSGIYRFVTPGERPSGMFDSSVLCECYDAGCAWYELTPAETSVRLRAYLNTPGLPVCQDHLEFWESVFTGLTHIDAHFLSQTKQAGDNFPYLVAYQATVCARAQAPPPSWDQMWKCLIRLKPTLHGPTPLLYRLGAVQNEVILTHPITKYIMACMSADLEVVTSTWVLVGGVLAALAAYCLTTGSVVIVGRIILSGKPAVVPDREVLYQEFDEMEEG
Assay: FRET peptide assay to monitor HCV NS3/4A proteolytic activity (J4L6S strain)

{"columns": ["item smiles", "IC50 [nM]"],
 "data": [
  ["COc1c(O[C@@H]2C[C@H]3C(=O)N[C@]4(C(=O)NS(=O)(=O)C5CC5)C[C@H]4/C=C\\CCCCC[C@H](NC(=O)OC(C)(C)C)C(=O)N3C2)ccc2c(Cl)nccc12", 0.47]
]}

###

Target: human liver cathepsin B (Homo sapiens)
pIC50: −log10 of the molar value.
reported property: pIC50

{"columns": ["item smiles", "reported property", "measured number"],
 "data": [
  ["COc1c(O[C@@H]2C[C@H]3C(=O)N[C@]4(C(=O)NS(=O)(=O)C5CC5)C[C@H]4/C=C\\CCCCC[C@H](NC(=O)OC(C)(C)C)C(=O)N3C2)ccc2c(Cl)nccc12", "pIC50", 4.00]
]}

###

Biological target: HCV NS3/4A protease complex, BMS strain (UniProt P27958, species not given/STRAIN_BMS)
Construct: for H77 and J4L6S; fused on or other part: Three-lysine solubilizing tail at the end of NS4A, for the H77 and J4L6S constructs; Purification on Ni-NTA and the pET21b vector imply a His tag
Sequence (P27958 1027-1657, change not shown, one chain of several): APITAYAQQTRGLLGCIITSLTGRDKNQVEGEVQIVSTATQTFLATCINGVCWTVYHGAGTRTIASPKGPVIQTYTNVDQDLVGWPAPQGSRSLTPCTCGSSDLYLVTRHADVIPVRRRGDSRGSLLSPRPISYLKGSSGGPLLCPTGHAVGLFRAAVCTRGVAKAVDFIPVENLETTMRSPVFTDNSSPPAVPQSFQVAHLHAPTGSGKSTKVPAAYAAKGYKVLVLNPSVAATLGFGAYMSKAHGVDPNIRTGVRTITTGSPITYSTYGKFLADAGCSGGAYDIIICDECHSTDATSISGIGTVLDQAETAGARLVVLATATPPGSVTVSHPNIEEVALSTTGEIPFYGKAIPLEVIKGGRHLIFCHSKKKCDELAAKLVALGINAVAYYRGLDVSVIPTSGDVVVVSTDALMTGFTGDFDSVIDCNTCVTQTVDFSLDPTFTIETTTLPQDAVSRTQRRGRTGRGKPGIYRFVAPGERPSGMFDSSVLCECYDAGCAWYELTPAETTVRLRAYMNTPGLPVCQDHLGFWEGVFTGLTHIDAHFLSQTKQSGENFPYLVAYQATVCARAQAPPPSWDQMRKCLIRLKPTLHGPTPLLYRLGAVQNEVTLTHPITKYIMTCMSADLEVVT
Assay: FRET peptide assay to monitor HCV NS3/4A proteolytic activity (BMS strain)
Format: biochemical, HCV genotype 1a
Conditions: NS3/4A BMS strain; read-out: IC50 Activity Range

{"columns": ["item smiles", "IC50"],
 "data": [
  ["CC(C)(C)OC(=O)N[C@H]1CCCOC/C=C\\[C@@H]2C[C@@]2(C(=O)NS(=O)(=O)C2CC2)NC(=O)[C@@H]2C[C@@H](OCc3ccccc3)CN2C1=O", "< 100 nM"],
  ["CC(C)(C)OC(=O)N[C@H]1CCCOC/C=C\\[C@@H]2C[C@@]2(C(=O)NS(=O)(=O)C2CC2)NC(=O)[C@@H]2C[C@@H](OC(C)(C)C)CN2C1=O", "100 to 1000 nM"],
  ["CC(C)(C)OC(=O)N[C@H]1CCCCC/C=C\\[C@@H]2C[C@@]2(C(=O)NS(=O)(=O)C2CC2)NC(=O)[C@@H]2C[C@@H](Oc3ccc([N+](=O)[O-])cc3)CN2C1=O", "< 100 nM"],
  ["COc1c(O[C@@H]2C[C@H]3C(=O)N[C@]4(C(=O)NS(=O)(=O)C5CC5)C[C@H]4/C=C\\CCCCC[C@H](NC(=O)OC(C)(C)C)C(=O)N3C2)ccc2c(Cl)nccc12", "< 100 nM"],
  ["CC(C)(C)OC(=O)N[C@H]1CCCCC/C=C\\[C@@H]2C[C@@]2(C(=O)NS(=O)(=O)C2CC2)NC(=O)[C@@H]2C[C@@H](Oc3ccccn3)CN2C1=O", "< 100 nM"]
]}
